Molecular target: T1, human CCR8 (human, UniProt P51685 1-355)
T1 construct: Native CCR8 on human PBMC (CCR8+ CD3+ or CCR8+ CD4+ lymphocytes); also called chemokine (C-C motif) receptor 8
T1 sequence (P51685 whole entry): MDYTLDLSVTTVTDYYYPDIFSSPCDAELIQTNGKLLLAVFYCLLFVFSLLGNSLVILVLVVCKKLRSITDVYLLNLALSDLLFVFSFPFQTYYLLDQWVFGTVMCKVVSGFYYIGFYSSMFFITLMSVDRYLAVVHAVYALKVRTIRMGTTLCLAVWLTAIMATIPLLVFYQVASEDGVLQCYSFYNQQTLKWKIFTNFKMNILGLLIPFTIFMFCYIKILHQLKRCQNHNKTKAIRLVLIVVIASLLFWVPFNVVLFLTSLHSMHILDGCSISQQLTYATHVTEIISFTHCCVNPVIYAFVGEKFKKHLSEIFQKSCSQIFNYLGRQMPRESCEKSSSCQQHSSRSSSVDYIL
Experiment: flow blocking, PBMC CCR8+CD4+; competitor PE-AB13
reportedProperty: % Blocking (%)
Respond with the bare value in %.

AB14 (antibody, V domains shown, Hybridoma monoclonal; Same VH/VL entries as AB15; also called antibody 14; clone 14) VH: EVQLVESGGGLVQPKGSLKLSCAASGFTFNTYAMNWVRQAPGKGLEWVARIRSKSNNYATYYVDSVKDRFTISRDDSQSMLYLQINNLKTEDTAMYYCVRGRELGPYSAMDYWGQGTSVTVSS VL: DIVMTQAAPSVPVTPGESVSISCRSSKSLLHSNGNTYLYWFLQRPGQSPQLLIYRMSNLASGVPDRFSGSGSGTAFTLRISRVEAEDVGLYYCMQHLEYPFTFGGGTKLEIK = 96

Given AB11 (antibody, V domains shown, Hybridoma monoclonal; also called antibody 11; clone 11) VH: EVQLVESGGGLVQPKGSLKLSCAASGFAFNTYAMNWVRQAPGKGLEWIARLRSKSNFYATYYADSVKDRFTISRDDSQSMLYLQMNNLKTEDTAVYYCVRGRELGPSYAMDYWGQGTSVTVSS VL: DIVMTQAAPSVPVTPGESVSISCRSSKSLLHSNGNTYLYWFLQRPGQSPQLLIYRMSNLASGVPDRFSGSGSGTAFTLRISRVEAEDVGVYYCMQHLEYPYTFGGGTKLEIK , state its recorded % Blocking.
96.5

Give the measured % Blocking of AB8 (antibody, V domains shown, Hybridoma monoclonal; also called antibody 8; clone 8) VH: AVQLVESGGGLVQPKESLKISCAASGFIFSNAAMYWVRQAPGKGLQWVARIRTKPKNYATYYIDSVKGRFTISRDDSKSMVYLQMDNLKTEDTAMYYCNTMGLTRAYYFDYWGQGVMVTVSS VL: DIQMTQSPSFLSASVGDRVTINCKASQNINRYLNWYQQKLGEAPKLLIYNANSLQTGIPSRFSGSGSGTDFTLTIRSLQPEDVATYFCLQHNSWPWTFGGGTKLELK .
93.4

Looking for the measured % Blocking of AB10 (antibody, V domains shown, Hybridoma monoclonal; also called antibody 10; clone 10) VH: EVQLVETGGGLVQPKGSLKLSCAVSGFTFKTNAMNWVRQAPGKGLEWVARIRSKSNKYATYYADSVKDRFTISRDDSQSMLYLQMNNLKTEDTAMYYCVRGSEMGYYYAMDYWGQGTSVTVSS VL: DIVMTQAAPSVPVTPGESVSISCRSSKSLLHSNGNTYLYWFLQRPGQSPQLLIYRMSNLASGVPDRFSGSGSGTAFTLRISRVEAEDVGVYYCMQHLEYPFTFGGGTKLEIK , can you help?
97.5

Requested field: % Blocking. Item: AB1 (antibody, V domains shown, Hybridoma monoclonal (mouse or rat); Same VH/VL entries as AB2; also called antibody 1; clone 1) VH: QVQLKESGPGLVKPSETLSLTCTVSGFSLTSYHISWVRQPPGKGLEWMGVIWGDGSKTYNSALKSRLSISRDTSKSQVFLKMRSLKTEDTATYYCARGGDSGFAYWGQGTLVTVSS VL: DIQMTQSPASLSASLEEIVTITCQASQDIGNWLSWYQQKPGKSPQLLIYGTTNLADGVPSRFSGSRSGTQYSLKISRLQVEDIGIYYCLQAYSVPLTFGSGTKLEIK
10.1
